tested on: Male Wistar rats; experiment: Effect on blood glucose (b), intraperitoneal; conditions: 300 mg/kg i.p., 6 hr
MEASURED ENDPOINT: Blood glucose (mg/dL)
Please respond with the number in mg/dL and leave the unit unwritten.

Record excerpt, results attached:
CN1CCN(C2=Nc3ccccc3S(=O)(=O)N2)CC1 [Compound B] = 125
NS(=O)(=O)c1cc2c(cc1Cl)NCNS2(=O)=O [Compound 4, Hydrochlorothiazide] = 144
CN1CCN(C2=Nc3ccc(Cl)cc3S(=O)(=O)N2)CC1 [Compound A] = 111

Attention now turns to another entry.
Indicate the recorded Blood glucose value for this compound: CC1=Nc2ccc(Cl)cc2S(=O)(=O)N1 [Compound 3] 675

###

experiment: Toxicity (LD50), JCL-ICR mice; conditions: mouse, in vivo, po, male, suspended in 0.5% tragacanth
MEASURED ENDPOINT: LD50 at 168 h

Look up and state reported LD50 at 168 h for CN1CCN(C2=Nc3ccc(Cl)cc3S(=O)(=O)N2)CC1 > 5000 mg/kg

###

tested on: Male Wistar rats; assay: Effect on blood glucose (b), intraperitoneal; settings: 300 mg/kg i.p., 1 hr
compounds and their reported Blood glucose
# unit: mg/dL | format: bare number

NS(=O)(=O)c1cc2c(cc1Cl)NCNS2(=O)=O [Compound 4, Hydrochlorothiazide] = 257
CN1CCN(C2=Nc3ccccc3S(=O)(=O)N2)CC1 [Compound B] = 111
CN1CCN(C2=Nc3ccc(Cl)cc3S(=O)(=O)N2)CC1 [Compound A] = 102

// below: Blood glucose requested for another compound
Output measured Blood glucose for this item: CC1=Nc2ccc(Cl)cc2S(=O)(=O)N1 [Compound 3] 361

###

Entries and their measured Blood glucose follow.
tested on: Male Wistar rats; assay: Effect on blood glucose (a), oral; details: 300 mg/kg p.o., 0 hr (prior to dosing)
The reply should be a number in mg/dL, with the unit left off.

// solved cases for Blood glucose follow
CC1=Nc2ccc(Cl)cc2S(=O)(=O)N1 = 111
CN1CCN(C2=Nc3ccccc3S(=O)(=O)N2)CC1 = 106
NS(=O)(=O)c1cc2c(cc1Cl)NCNS2(=O)=O [Compound 4, Hydrochlorothiazide] = 104

Here is the next item to consider.
Report Blood glucose for CN1CCN(C2=Nc3ccc(Cl)cc3S(=O)(=O)N2)CC1 105

###

experiment: Toxicity (LD50), JCL-SD rats; details: rat, in vivo, po, male, suspended in 0.5% tragacanth
MEASURED ENDPOINT: LD50 at 168 h

Answer with reported LD50 at 168 h of CN1CCN(C2=Nc3ccc(Cl)cc3S(=O)(=O)N2)CC1 > 5000 mg/kg

###

experiment: Toxicity (LD50), JCL-ICR mice; details: mouse, in vivo, po, female, suspended in 0.5% tragacanth
MEASURED ENDPOINT: LD50 at 168 h

Tell me LD50 at 168 h reported for CN1CCN(C2=Nc3ccc(Cl)cc3S(=O)(=O)N2)CC1 > 5000 mg/kg

###

test system: Male Wistar rats; experiment: Effect on blood glucose (a), oral; details: 300 mg/kg p.o., 6 hr
MEASURED ENDPOINT: Blood glucose

NS(=O)(=O)c1cc2c(cc1Cl)NCNS2(=O)=O [Compound 4, Hydrochlorothiazide] = 112 mg/dL

Item CN1CCN(C2=Nc3ccc(Cl)cc3S(=O)(=O)N2)CC1 : provide Blood glucose 103 mg/dL

Report Blood glucose, nothing else, for this compound: CC1=Nc2ccc(Cl)cc2S(=O)(=O)N1 146 mg/dL

Return value of Blood glucose for input CN1CCN(C2=Nc3ccccc3S(=O)(=O)N2)CC1 , no commentary. 104 mg/dL

// provenance: patent US4029780A
